assay: self-splicing fitness, log relative to wild type (ln ratio); higher = more splicing; Tetrahymena group I intron in knt gene, E. coli kanamycin selection, DiMSum; sequences stand for … in CUCUCU…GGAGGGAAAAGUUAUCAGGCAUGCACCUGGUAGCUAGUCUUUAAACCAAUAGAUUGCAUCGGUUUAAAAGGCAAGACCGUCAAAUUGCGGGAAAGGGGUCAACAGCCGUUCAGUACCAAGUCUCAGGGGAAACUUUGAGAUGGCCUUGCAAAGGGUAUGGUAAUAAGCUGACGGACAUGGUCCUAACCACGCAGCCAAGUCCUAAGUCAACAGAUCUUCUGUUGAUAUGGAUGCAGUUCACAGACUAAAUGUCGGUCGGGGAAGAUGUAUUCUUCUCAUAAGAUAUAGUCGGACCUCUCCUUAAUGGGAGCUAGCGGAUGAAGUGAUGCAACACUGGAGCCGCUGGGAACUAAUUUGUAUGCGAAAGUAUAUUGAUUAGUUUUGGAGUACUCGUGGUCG; settings: 37 °C;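 note: selection with 25 µg/mL kanamycin versus none on LB agar overnight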
List of self-splicing fitness (ln) values.
When you answer, write just the number.

AGUAAGCAAUAUUACGUUCC	-0.345
UUUUAGCAAUAUUACGCUUG	-0.13

Entry AGGUAGCAAUAUUACGCGAC : reported self-splicing fitness (ln) = ?
-1.8

Entry CCAUAGCAAUAUUACGGAUU : reported self-splicing fitness (ln) = ?
-2.96

Entry CACUAGCAAUAUUACGCUUC : reported self-splicing fitness (ln) = ?
-3.2

Entry CGACAGCAAUAUUACGUACU : reported self-splicing fitness (ln) = ?
-0.578

Entry AGCUAGCAAUAUUACGGGUA : reported self-splicing fitness (ln) = ?
-0.597
